Cited source: patent US12258328B2

# measured_target: EGFR L858R/C797S (Homo sapiens, UniProt P00533, C797S/L858R)
# Sequence (P00533 25-1210 C797S/L858R): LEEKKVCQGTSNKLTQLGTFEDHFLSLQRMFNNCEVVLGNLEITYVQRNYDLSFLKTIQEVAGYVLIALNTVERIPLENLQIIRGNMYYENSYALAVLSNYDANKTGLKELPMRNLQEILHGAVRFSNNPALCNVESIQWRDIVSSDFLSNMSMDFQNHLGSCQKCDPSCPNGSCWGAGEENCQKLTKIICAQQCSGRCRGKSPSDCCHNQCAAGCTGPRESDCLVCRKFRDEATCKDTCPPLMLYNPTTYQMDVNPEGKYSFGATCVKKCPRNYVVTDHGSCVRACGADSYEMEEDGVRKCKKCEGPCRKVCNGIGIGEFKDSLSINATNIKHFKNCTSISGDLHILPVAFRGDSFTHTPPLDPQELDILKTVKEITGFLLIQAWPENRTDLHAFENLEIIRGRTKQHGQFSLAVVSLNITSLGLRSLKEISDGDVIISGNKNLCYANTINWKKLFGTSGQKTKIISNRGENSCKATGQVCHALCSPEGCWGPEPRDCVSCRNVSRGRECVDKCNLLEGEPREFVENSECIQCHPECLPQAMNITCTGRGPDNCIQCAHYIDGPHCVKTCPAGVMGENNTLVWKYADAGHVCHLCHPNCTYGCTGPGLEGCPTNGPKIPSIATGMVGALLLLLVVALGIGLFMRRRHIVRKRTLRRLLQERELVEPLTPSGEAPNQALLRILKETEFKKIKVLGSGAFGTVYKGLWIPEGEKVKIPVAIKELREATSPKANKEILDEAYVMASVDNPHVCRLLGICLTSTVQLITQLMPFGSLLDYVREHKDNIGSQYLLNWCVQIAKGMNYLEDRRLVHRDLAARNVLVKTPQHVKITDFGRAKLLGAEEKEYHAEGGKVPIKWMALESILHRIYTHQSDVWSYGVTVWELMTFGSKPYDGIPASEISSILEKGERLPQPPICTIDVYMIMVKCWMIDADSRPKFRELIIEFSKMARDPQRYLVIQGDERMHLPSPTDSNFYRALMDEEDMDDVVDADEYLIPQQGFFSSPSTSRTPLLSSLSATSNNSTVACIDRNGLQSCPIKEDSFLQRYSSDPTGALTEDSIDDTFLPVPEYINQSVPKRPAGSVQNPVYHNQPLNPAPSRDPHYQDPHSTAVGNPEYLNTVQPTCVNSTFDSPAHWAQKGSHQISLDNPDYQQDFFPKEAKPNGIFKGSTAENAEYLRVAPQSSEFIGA
# protocol_details: Biochemical EGFR kinase assay (Lance Ultra TR-FRET), double mutant L858R/C797S
# measurement_conditions: IC50 L858R/C797S, 100 μM ATP
property_name: IC50

// known answers, use as guide
smiles_notation=CN(C)C(=O)[C@H]1CC[C@@H](Nc2cc(Nc3ccnc(-c4cnn(S(=O)(=O)C5CC5)c4)n3)ncc2-c2ccc(C(C)(C)O)cn2)CC1 property_name=IC50 measurement="4.8 nM"
smiles_notation=O=S(=O)(C1CC1)n1cc(-c2nccc(Nc3cc(N[C@H]4CC[C@@H](NCC(F)F)CC4)c(-c4cccc(F)n4)cn3)n2)cn1 property_name=IC50 measurement="11.4 nM"

Turning to the following molecule.
Short answer for O=S(=O)(C1CC1)n1cc(-c2nccc(Nc3cc(N[C@H]4CC[C@@H](CO)CC4)c(-c4cccc(CC(F)(F)F)n4)cn3)n2)cn1 : IC50 was 45.2 nM
